# Test Target: human TYK2 kinase domain (JH1) (Homo sapiens)
# Construct: recombinantly generated catalytic kinase (also known as JH1) domain of human JAK1, JAK2, JAK3 and TYK2
# Sequence (P29597 897-1176 limits assumed): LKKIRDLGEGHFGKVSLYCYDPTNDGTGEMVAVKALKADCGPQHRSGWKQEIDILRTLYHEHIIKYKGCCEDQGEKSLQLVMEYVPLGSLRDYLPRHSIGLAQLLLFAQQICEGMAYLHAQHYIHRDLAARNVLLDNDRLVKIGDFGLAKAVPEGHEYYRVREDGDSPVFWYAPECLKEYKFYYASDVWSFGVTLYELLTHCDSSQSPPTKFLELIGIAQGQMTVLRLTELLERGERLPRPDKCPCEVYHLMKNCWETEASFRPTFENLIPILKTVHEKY
# Procedure Text: JH1 biochemical assay for TYK2 (ADP-Glo kinase assay, recombinant JH1 catalytic domain, JAK3-974 peptide, 10 μM ATP)
# Condition Details: TYK2 JH1, ADP-Glo
# Description: Compounds of the disclosure were assessed for their ability to inhibit TYK2, JAK1, JAK2, and JAK3 activity. The inhibitory properties of the compounds of the disclosure described herein can be evidenced by testing in any one of the following protocols. The kinase activity of recombinantly generated catalytic kinase (also known as JH1) domain of human JAK1, JAK2, JAK3 and TYK2 were evaluated in a plate-based assay using the ADP-Glo™ Kinase Assay platform. […]
pIC50: −log10 of the molar value. Structures can show the parent of a compound that is named as a salt.
Measurement Label: pIC50

Example entries begin here.
>>> assay_value("C[C@@H]1CN(c2nc(-c3cnn(C4CC(F)(F)C4)c3)cn3nccc23)C(=O)[C@]1(C#N)C1CC1")
"> 8.30"
>>> assay_value("C[C@@H]1CN(c2nc(-c3cnn(C4CN(C)C4)c3)cc3ncsc23)C(=O)[C@]1(C#N)C1CC1")
"> 8.30"
>>> assay_value("C[C@@H]1CN(c2nc(-c3ccc(C(F)(F)F)nc3)cn3nccc23)C(=O)[C@]1(C#N)C1CC1 [Example 238, trifluoroacetate]")
"< 7.00"

Query block: So what's the measured pIC50 for this one? "C[C@@H]1CN(c2nn(-c3cnn(C(F)F)c3)c3cnccc23)C(=O)[C@]1(C#N)C1CC1"
Result block: 7.70 to 8.30

Query block: pIC50 lookup needed for C[C@@H]1CN(c2nc(-c3cncc(F)c3)cn3nccc23)C(=O)[C@]1(C#N)C1CC1 [Example 246, trifluoroacetate] , thanks.
Result block: 7.70 to 8.30

Query block: What value of pIC50 has been reported for the following molecule? "C[C@@H]1CN(c2nc(-c3cnn(C4CC5(COC5)C4)c3)cn3nccc23)C(=O)[C@]1(C#N)C1CC1"
Result block: > 8.30

Query block: Requested read-out: pIC50. Entry: "C[C@@H]1CN(c2nc(-c3cnn(-c4ccccn4)c3)cn3nccc23)C(=O)[C@]1(C#N)C1CC1"
Result block: > 8.30

###

# Test Target: JAK2 kinase activity on STAT5 in TF1 cells (Homo sapiens, UniProt O60674)
# Sequence (O60674 whole entry): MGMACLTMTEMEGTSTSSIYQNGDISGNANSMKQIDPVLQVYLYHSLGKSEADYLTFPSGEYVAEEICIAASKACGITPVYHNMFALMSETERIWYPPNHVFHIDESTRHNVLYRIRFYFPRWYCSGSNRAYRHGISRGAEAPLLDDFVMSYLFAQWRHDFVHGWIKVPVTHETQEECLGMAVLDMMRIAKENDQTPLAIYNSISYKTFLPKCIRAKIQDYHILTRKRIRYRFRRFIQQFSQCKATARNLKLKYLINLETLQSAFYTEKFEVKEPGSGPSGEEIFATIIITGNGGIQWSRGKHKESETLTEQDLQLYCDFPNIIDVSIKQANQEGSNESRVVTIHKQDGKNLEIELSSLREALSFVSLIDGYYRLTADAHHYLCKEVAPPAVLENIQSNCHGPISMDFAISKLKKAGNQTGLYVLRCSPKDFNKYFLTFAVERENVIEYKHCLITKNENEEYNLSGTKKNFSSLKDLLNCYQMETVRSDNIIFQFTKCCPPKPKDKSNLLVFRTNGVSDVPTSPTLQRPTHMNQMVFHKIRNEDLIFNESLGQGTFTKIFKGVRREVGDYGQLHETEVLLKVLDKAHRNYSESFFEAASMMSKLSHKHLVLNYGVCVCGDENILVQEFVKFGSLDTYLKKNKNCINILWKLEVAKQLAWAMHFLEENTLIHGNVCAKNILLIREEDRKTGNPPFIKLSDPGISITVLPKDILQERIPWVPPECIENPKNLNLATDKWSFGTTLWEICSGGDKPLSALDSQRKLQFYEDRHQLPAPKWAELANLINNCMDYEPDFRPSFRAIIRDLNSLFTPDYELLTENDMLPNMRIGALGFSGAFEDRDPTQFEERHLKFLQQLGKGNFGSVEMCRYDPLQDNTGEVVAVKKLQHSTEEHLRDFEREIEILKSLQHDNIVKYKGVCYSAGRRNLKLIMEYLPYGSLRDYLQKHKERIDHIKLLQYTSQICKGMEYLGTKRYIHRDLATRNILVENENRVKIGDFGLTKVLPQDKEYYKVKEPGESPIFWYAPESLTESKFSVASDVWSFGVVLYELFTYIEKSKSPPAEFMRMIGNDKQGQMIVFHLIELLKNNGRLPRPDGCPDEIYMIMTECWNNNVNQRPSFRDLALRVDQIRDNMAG
# Procedure Text: pSTAT5 cell assay (MSD; TF1 cells, 30 ng/mL IL-3 stimulation)
# Condition Details: 30 ng/mL IL-3, 15 minutes
Structures can show the parent of a compound that is named as a salt.
Listing of recorded IC50 by entry.

Please review the entries below; each comes with its answer.
>>> assay_value("Cc1c(-c2cn3nccc3c(N3C[C@@H](C)[C@@](C#N)(C4CC4)C3=O)n2)cnn1C")
"5 to 10 µM"
>>> assay_value("Cc1nc(C)c(-c2cn3nccc3c(N3C[C@@H](C)[C@@](C#N)(C4CC4)C3=O)n2)s1")
"5 to 10 µM"
>>> assay_value("C[C@@H]1CN(c2ccnn3cc(-c4ccc(CC#N)cn4)cc23)C(=O)[C@]1(C#N)C1CC1 [Example 127, trifluoroacetate]")
"> 10 µM"
>>> assay_value("C[C@@H]1CN(c2ccnn3cc(-c4ccc(=O)n(C)c4)cc23)C(=O)[C@]1(C#N)C1CC1")
"5 to 10 µM"
>>> assay_value("C[C@@H]1CN(c2nc(-c3ccc(O)nc3)cn3nccc23)C(=O)[C@]1(C#N)C1CC1 [Example 267, trifluoroacetate]")
"0.1 to 1 µM"

Continue with the compound presented below.
Query block: IC50 for "C[C@@H]1CN(c2ccnn3cc(-c4cnn(C5CN(C)C5)c4)cc23)C(=O)[C@]1(C#N)C1CC1" ?
Result block: 5 to 10 µM

###

# Test Target: human TYK2 kinase domain (JH1) (Homo sapiens)
# Construct: recombinantly generated catalytic kinase (also known as JH1) domain of human JAK1, JAK2, JAK3 and TYK2
# Procedure Text: JH1 biochemical assay for TYK2 (ADP-Glo kinase assay, recombinant JH1 catalytic domain, JAK3-974 peptide, 10 μM ATP)
# Condition Details: TYK2 JH1, ADP-Glo
pIC50: −log10 of the molar value. Structures can show the parent of a compound that is named as a salt.
Measurement Label: pIC50

>>> assay_value("CO[C@H]1C[C@H](n2cc(-c3cn4ncc(F)c4c(N4C[C@@H](C)[C@@](C#N)(C5CC5)C4=O)n3)cn2)C1")
"> 8.30"
>>> assay_value("C[C@@H]1CN(c2nc(-c3cncc(Cl)c3)cn3nccc23)C(=O)[C@]1(C#N)C1CC1 [Example 248, trifluoroacetate]")
"7.30 to 7.70"
>>> assay_value("C[C@@H]1CN(c2ccnn3cc(-n4ccnc4)cc23)C(=O)[C@]1(C#N)C1CC1")
"7.30 to 7.70"
>>> assay_value("Cc1cn(-c2cc3c(N4C[C@@H](C)[C@@](C#N)(C5CC5)C4=O)ccnn3c2)cn1")
"7.70 to 8.30"
>>> assay_value("C[C@@H]1CN(c2nc(-c3cnn([C@H]4C[C@](C)(C#N)C4)c3)cn3ncc(F)c23)C(=O)[C@]1(C#N)C1CC1")
"> 8.30"

// moving on: another record for pIC50
Query block: # returns recorded pIC50 (system: human TYK2 kinase domain (JH1) (Homo sapiens)) for "C[C@@H]1CN(c2nc(-c3cnn(C4CCCCC4)c3)cn3ncc(F)c23)C(=O)[C@]1(C#N)C1CC1"
Result block: > 8.30

###

Measured IC50, listed per entry.
# Test Target: human JAK3 kinase domain (JH1) (Homo sapiens)
# Construct: recombinantly generated catalytic kinase (also known as JH1) domain of human JAK1, JAK2, JAK3 and TYK2
# Sequence (P52333 822-1111 limits assumed): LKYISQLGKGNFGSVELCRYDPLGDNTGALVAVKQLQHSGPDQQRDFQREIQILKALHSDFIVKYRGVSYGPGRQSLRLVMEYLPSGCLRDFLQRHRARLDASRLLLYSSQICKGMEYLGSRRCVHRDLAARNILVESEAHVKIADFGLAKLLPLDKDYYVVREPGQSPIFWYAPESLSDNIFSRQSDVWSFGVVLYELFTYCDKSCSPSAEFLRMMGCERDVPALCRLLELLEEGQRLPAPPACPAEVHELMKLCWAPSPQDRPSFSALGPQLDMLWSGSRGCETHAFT
# Procedure Text: JH1 biochemical assay for JAK3 (ADP-Glo kinase assay, recombinant JH1 catalytic domain, JAK3-974 peptide, 4 μM ATP)
# Condition Details: JH1 kinase domain, ADP-Glo
Where a name gives a salt, the structure may show the parent alone.

Answered cases to consult:
>>> assay_value("C[C@H]1C[C@](C#N)(C2CC2)C(=O)N1c1ccnn2cc(-c3cnn(C)c3)cc12")
"> 10000 nM"
>>> assay_value("C[C@@H]1CN(c2ccnn3cc(-c4cccc5cnn(C)c45)cc23)C(=O)[C@]1(C#N)C1CC1")
"> 10000 nM"
>>> assay_value("C[C@@H]1CN(c2ccnn3cc(-c4cnn5c4CCCC5)cc23)C(=O)[C@]1(C#N)C1CC1")
"100 to 1000 nM"
>>> assay_value("CC(=O)Nc1cccc(-c2cc3c(N4C[C@@H](C)[C@@](C#N)(C5CC5)C4=O)ccnn3c2)n1 [Example 131, trifluoroacetate]")
"100 to 1000 nM"

Query block: Entry Cc1csc(-c2cc3c(N4C[C@@H](C)[C@@](C#N)(C5CC5)C4=O)ccnn3c2)n1 [Example 113, trifluoroacetate] , system human JAK3 kinase domain (JH1) (Homo sapiens): what IC50 was measured?
Result block: 100 to 1000 nM

Query block: Lookup: IC50 / human JAK3 kinase domain (JH1) (Homo sapiens) / "C[C@@H]1CN(c2nc(-c3cccnc3)cn3nccc23)C(=O)[C@]1(C#N)C1CC1"
Result block: < 100 nM

###

# Test Target: human JAK2 kinase domain (JH1) (Homo sapiens, UniProt O60674)
# Construct: recombinantly generated catalytic kinase (also known as JH1) domain of human JAK1, JAK2, JAK3 and TYK2
# Sequence (O60674 849-1124 limits assumed): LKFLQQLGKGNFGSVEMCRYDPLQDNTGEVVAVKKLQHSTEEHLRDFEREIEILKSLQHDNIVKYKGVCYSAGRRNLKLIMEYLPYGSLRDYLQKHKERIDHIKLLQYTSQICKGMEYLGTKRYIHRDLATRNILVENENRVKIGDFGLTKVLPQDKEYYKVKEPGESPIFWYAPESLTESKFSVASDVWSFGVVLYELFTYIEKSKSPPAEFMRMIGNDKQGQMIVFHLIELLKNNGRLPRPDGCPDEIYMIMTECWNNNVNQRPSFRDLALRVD
# Procedure Text: JH1 biochemical assay for JAK2 (ADP-Glo kinase assay, recombinant JH1 catalytic domain, JAK3-974 peptide, 15 μM ATP)
# Condition Details: JAK2 JH1, ADP-Glo
Measurement Label: IC50

>>> assay_value("C[C@@H]1CN(c2nn(-c3cccc(=O)n3C)c3cnccc23)C(=O)[C@]1(C#N)C1CC1")
"> 10 µM"
>>> assay_value("C[C@@H]1CN(c2cc(-c3cnn(C)c3)cc3nccn23)C(=O)[C@]1(C#N)C1CC1")
"> 10 µM"
>>> assay_value("C[C@@H]1CN(c2nc(-c3cnn(-c4ccncc4)c3)cn3nccc23)C(=O)[C@]1(C#N)C1CC1")
"< 0.1 µM"

Please look at the following compound next.
Query block: Name the reported IC50 value associated with the compound "CC(C)n1cc(-c2cc3nccc(N4C[C@@H](C)[C@@](C#N)(C5CC5)C4=O)c3o2)cn1"
Result block: 0.1 to 1 µM
